Target: HPV E6 #35 (cysteine-free) (HPV strain 35)
Assay: G assay titration, PDZ 5 ug/ml
Field: pKd. Provide a value for each of the binders that follow.
One number for each entry, as −log10 of the molar value.

Binder | Measured Metric | Measurement
GST-ERBIN PDZ domain 1 (other, not shown: a dimerising Fc or GST) QGHELAKQEIRVRVEKDPELGFSISGGVGGRGNPFRPDDDGIFVTRVQPEGPASKLLQPGDKIIQANGYSFINIEHGQAVSLLKTFQNTVELIIVREVSS | pKd | 6.40
GST-KIAA0147 PDZ domain 3 (other, not shown: a dimerising Fc or GST) ILEGPYPVEEIRLPRAGGPLGLSIVGGSDHSSHPFGVQEPGVFISKVLPRGLAARSGLRVGDRILAVNGQDVRDATHQEAVSALLRPCLELSLLVRRDPAEFIVTD | pKd | 6.46

Turning to the following binder.
In: Please look at this binder and report its pKd: GST-FLJ00011 PDZ domain 1 (other, not shown: a dimerising Fc or GST) KNPSGELKTVTLSKMKQSLGISISGGIESKVQPMVKIEKIFPGGAAFLSGALQAGFELVAVDGENLEQVTHQRAVDTIRRAYRNKAREPMELVVRVPGPSPRPSPSD
Out: 6.46

Reference for the values: patent US20050282743A1
